Where do these numbers come from? They come from paper PMC10786891.

- studyTarget: T1, EsCas13d, nuclease-dead (Eubacterium siraeum, UniProt B0MS50, R295A;H300A;R849A;H854A)
- T1 sequence: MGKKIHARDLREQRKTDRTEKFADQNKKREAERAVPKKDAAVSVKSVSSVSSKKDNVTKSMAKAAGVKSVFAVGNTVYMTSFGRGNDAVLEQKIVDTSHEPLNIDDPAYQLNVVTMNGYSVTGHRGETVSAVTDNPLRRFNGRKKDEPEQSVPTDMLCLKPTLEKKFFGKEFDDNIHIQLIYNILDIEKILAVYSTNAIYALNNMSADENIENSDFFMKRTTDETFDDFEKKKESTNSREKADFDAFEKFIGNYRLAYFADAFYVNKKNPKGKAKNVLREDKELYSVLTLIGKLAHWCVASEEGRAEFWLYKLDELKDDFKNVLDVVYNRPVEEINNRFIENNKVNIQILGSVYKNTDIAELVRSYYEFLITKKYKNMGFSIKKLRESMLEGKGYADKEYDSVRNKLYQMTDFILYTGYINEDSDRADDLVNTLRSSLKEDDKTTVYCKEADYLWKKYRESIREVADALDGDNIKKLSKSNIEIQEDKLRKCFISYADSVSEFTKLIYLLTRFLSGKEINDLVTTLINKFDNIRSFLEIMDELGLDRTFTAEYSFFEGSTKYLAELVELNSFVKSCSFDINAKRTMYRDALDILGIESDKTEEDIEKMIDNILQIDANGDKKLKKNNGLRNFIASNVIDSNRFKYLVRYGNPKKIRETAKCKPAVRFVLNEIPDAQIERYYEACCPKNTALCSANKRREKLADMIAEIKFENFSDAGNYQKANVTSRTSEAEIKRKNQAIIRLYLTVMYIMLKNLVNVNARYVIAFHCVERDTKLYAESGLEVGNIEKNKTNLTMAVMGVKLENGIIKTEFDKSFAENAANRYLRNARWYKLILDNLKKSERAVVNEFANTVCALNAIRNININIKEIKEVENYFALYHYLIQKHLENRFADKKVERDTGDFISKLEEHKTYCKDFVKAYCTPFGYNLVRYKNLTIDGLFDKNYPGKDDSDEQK
- testSummary: crRNA (strand 1, pre-loaded); Mg2+; 40 mM Tris-HCl pH 7.5, 150 mM NaCl, 6 mM MgCl2, 1 mM DTT, 0.1% Tween-20, 0.2 mg/ml BSA; 25 C; 10 min per concentration, then washed
- conditionNotes: tags: His6-TwinStrep-SUMO cleaved; N-terminal SNAP kept (SNAP-Surface 488); label: 3' end held by stalled T7 RNA polymerase
As shown below, each of these binders has a reported pKd value.
pKd is defined as minus the log10 of a concentration measured in mol/L.

See these solved cases before continuing.
Output pKd of target 1 insU 3' of 14,insG 3' of 9 (mixed) RNA 1: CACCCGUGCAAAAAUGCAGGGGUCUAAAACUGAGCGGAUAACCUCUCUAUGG RNA 2: GGGAAUGGAUCCACAUCUACGAAUUCGUACCAUAGAGAUGGUUAGUCCGCUCACCGAGAUCGGAAGAGCACACGU
7.55

Supply recorded pKd for target 1 insG 3' of 9,insA 3' of 6 (mixed) RNA 1: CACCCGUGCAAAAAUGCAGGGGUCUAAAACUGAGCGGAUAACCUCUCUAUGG RNA 2: GGGAAUGGAUCCACAUCUACGAAUUCGUACCAUAGAGAGGUUAGUCCAGCUCACCGAGAUCGGAAGAGCACACGU here.
7.87

Item target 1 insA 3' of 19,insA 3' of 7 (mixed) RNA 1: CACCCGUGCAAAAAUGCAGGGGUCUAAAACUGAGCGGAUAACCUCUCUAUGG RNA 2: GGGAAUGGAUCCACAUCUACGAAUUCGUACCAUAAGAGAGGUUAUCACGCUCACCGAGAUCGGAAGAGCACACGU : provide pKd
7.82

Shift focus to the following entry.
Consider the binder target 1 complement block 4-13 (mixed) RNA 1: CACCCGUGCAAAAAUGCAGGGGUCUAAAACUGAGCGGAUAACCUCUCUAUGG RNA 2: GGGAAUGGAUCCACAUCUACGAAUUCGUACCAUAGAGACCAAUAGGCGUCACCGAGAUCGGAAGAGCACACGU and give its recorded pKd.
7.26
